Biological target: hRIP1 kinase (recombinant full-length RIPK1 protein with N-terminal GST-tag) (Homo sapiens (Human), UniProt Q13546)
Sequence (Q13546 whole entry): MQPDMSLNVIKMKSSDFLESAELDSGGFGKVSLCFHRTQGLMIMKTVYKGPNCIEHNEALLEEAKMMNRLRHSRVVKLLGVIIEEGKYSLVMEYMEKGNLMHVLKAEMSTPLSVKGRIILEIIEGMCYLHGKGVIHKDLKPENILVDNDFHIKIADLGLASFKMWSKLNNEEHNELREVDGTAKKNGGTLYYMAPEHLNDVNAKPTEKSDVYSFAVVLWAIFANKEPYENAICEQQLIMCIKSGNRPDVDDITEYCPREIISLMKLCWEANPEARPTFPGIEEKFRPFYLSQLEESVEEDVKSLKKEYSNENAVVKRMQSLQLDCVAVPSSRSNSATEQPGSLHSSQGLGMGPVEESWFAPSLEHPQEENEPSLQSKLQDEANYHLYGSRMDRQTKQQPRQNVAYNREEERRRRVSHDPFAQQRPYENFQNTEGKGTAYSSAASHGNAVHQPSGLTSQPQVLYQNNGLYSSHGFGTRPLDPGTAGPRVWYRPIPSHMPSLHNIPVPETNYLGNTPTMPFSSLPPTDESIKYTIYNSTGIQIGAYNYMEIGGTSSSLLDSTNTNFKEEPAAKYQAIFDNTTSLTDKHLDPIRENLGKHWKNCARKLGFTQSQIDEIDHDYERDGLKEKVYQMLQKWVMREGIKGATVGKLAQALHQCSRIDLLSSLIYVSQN
Assay: Kinase assay of RIPK1 (ADP-Glo)
Settings: 161 nM RIPK1, 50 uM ATP, 20 uM MBP, 90 min
Reported values of pIC50 for individual entries
Conceptually, pIC50 converts a concentration in mol/L into minus its log10.

>>> number("CCC(C)(C)C(=O)N1C(=O)CC1c1cccc(N=[N+]=[N-])c1 (stereo not shown) [Compound 25]")
6.82

Next, consider the following compound.
Using known records, supply pIC50 for CCC(C)(C)C(=O)N1CCCC1c1cc(F)cc(F)c1F (stereo not shown) [Compound 10] 7.65

====

Target: hRIP1 kinase (recombinant full-length RIPK1 protein with N-terminal GST-tag) (Homo sapiens (Human), UniProt Q13546)
Assay: Kinase assay of RIPK1 (ADP-Glo)
Details: 161 nM RIPK1, 50 uM ATP, 20 uM MBP, 90 min
Reported endpoint: pIC50
The scale used: pIC50 is minus the common logarithm of the concentration in molar units.

Consider the worked cases shown below.
>>> number("CCC(C)(C)C(=O)N1C(=O)N(C)C[C@H]1c1ccccc1")
5.97
>>> number("CCC(C)(C)C(=O)N1CCC1c1ccccc1 (centres unmarked)")
7.46
>>> number("CCC(C)(C)C(=O)N1C[C@H](O)C[C@H]1c1ccccc1")
6.34
>>> number("C=CC(C)(C)C(=O)N1C(=O)C[C@H]1c1ccccc1")
7.86

Now let's try a different one.
Tell us which pIC50 value is on record for CCC(C)(C)C(=O)N1C(=O)C[C@H]1c1ccccc1 7.70
